Every entry's value here was drawn from paper PMC9306752.

system: HCoV229E; assay: cells; type: cell-based, human pathogenic coronavirus HCoV229E; details: IC50 Huh-7.5 versus IC50 HCoV229E
As shown below, each of these compounds has a reported factor between cytotoxic activity (IC50 Huh-7.5) and antiviral activity (IC50 HCoV229E) value.
MEASUREMENT_KIND: factor between cytotoxic activity (IC50 Huh-7.5) and antiviral activity (IC50 HCoV229E)

>>> assay_result("CC(C)=CCC/C(C)=C/CC/C(C)=C/Cn1c(C)[n+](C/C=C(\\C)CC/C=C(\\C)CCC=C(C)C)c2cc(C)c(C)cc21 [Sandacrabin C]")
"11 fold"
>>> assay_result("CC(C)=CCC/C(C)=C/CC/C(C)=C/Cn1c(C)nc2cc(C)c(C)cc21 [Sandacrabin E]")
"3–4 fold"
>>> assay_result("CC(C)=CCC/C(C)=C/CC/C(C)=C/Cn1cnc2cc(C)c(C)cc21 [Sandacrabin D]")
"3–4 fold"
>>> assay_result("CC(C)=CCC/C(C)=C/CC/C(C)=C/Cn1c[n+](C/C=C(\\C)CC/C=C(\\C)CCC=C(C)C)c2cc(C)c(C)cc21 [Sandacrabin B]")
"3–4 fold"

====

As shown below, each of these compounds has a reported MIC value.
system: Staphylococcus aureus Newman; experiment: Antimicrobial MIC determination, serial dilution in 96 well plates; type: cell-based; details: 24 h at 37 °C
MEASUREMENT_KIND: MIC (µg/mL)

>>> assay_result("CC(C)=CCC/C(C)=C/CC/C(C)=C/Cn1c(/C=C(\\C)CC/C=C(\\C)CCC=C(C)C)nc2cc(C)c(C)cc21")
128
>>> assay_result("CC(C)=CCC/C(C)=C/CC/C(C)=C/Cn1cnc2cc(C)c(C)cc21")
64
>>> assay_result("CC(C)=CCC/C(C)=C/CC/C(C)=C/Cn1c(C)nc2cc(C)c(C)cc21")
64
